test_system: M4 muscarinic receptor (Homo sapiens, UniProt P08173)
Construct: expressed in transfected cells; host or cells: CHO (M4-CHO)
assay_overview: Functional mobilization of intracellular calcium (FLIPR) in M4-CHO cells
Assay type: cell-based
applied_conditions: Table 4; 100% efficacy is the maximum response obtained with the Carbachol control
# Lookup of reported Emax keyed by entry

Solved entries (count: 3):
{"molecule": "COc1cccc(C(=O)N2CCC(N3CCC4(CC3)CN(C(=O)N(C)C)c3ccc(F)cc34)CC2)c1", "Emax": "< 25%"}
{"molecule": "CCOC(=O)N1CCC(N2CCC3(CC2)CN(C(=O)N2CCCC2)c2ccccc23)CC1", "Emax": "25 to 100%"}
{"molecule": "CCCOC(=O)N1CC[C@H](CN2CCC3(CC2)CN(C(=O)N(C)C)c2ccc(F)cc23)C1", "Emax": "25 to 100%"}

Query molecule follows.
// CCOC(=O)N1CCC(N2CCC3(C[C@H](NC(C)=O)c4cc(F)ccc43)C2)CC1 (stereo partly shown) : Emax value = < 25%

----------
test_system: M4 muscarinic receptor (Homo sapiens, UniProt P08173)
Construct: expressed in transfected cells; host or cells: CHO (M4-CHO)
assay_overview: Functional mobilization of intracellular calcium (FLIPR) in M4-CHO cells
Type: cell-based
applied_conditions: 100% efficacy is the maximum response obtained with the Carbachol control; Table 5
assay_endpoint: Emax

Please review the entries below; each comes with its answer.
{"substance_smiles": "CN(C)C(=O)N1CC2(CCN(C3CCN(c4cccnc4)CC3)CC2)c2cc(F)ccc21", "test_system": "M4 muscarinic receptor (Homo sapiens, UniProt P08173)", "Emax": "25 to 100%"}
{"substance_smiles": "CN(C)C(=O)N1CC2(CCN(C3CCN(c4cncnc4)CC3)CC2)c2cc(F)ccc21", "test_system": "M4 muscarinic receptor (Homo sapiens, UniProt P08173)", "Emax": "25 to 100%"}
{"substance_smiles": "COc1ccc(F)cc1N1CCC(N2CCC3(CC2)CN(C(=O)N(C)C)c2ccc(F)cc23)CC1", "test_system": "M4 muscarinic receptor (Homo sapiens, UniProt P08173)", "Emax": "25 to 100%"}

Quick note, Emax for "CN(C)C(=O)N1CC2(CCN(C3CCN(c4nccs4)CC3)CC2)c2cc(F)ccc21" landed at 25 to 100%

----------
test_system: M4 muscarinic receptor (Homo sapiens)
Construct: expressed in transfected cells; host or cells: CHO (M4-CHO)
Sequence (P08173 1-479): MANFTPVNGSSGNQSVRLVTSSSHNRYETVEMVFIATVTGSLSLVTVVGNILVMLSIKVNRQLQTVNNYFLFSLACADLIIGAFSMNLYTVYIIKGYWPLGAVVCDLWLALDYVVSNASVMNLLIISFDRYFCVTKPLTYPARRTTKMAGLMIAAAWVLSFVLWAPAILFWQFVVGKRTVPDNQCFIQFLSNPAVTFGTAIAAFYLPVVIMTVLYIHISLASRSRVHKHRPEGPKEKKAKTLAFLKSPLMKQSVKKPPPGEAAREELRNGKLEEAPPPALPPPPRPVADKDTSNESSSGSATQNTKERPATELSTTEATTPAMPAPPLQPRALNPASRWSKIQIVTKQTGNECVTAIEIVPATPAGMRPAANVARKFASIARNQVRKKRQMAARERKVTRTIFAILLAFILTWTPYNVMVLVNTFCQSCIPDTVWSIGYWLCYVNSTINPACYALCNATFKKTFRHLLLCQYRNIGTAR
assay_overview: Functional mobilization of intracellular calcium (FLIPR) in M4-CHO cells
Format: cell-based
applied_conditions: M4 receptor, calcium mobilization; read-out: M4 Efficacy
Below: a set of entries, each annotated with reported Emax.

Some solved cases for reference:
{"compound": "CN([C@H]1CC2(CCN(C[C@H]3C[C@H]4CC[C@H]3C4)CC2)c2ccccc21)S(C)(=O)=O", "Emax": "< 65%"}
{"compound": "CC(C)OC(=O)N1C2CCC1CC(N1CCC3(CCc4ccccc43)CC1)C2 (stereo not shown)", "Emax": "< 65%"}
{"compound": "CCOC(=O)N1CCC(N2CCC3(CC2)CN(C(C)=O)c2ccc(-c4ccccc4)cc23)CC1", "Emax": "< 65%"}
{"compound": "COCCOC(=O)N1CCC(N2CCC3(CC2)CN(C(=O)N(C)C)c2ccc(F)cc23)CC1", "Emax": "< 65%"}
{"compound": "O=C1CC2(CCN(C[C@H]3C[C@H]4C=C[C@H]3C4)CC2)c2ccccc21", "Emax": "< 65%"}

What the record says about Fc1ccc2c(c1)C1(CCN(CC3CCC4CCC3C4)CC1)CN2 (stereo not shown) : Emax is < 65%

So, "CCOC(=O)N1CCC(N2CCC3(CC2)C(=O)N(C)c2ccccc23)CC1" ? Its Emax was 65 to 85%

Emax reading for CC(C)COC(=O)N1C2CCC1CC(N1CCC3(CC1)COc1ccc(F)cc13)C2 (stereo not shown) : > 85%

// Emax value for "CCOC(=O)N1CCC(N2CCC3(CC2)CN(C(C)=O)c2ccc(-c4cccc(F)c4)cc23)CC1" : 65 to 85%

Record "CCOC(=O)N1CCC(CN2CCC3(CC2)COc2ccc(Cl)cc23)CC1" . Reported Emax: 65 to 85%
